Just for reference, patent US20110236390A1 is where these values come from.

Listed here: items and their measured Stoichiometry.
- measured-on: T1, cynomolgus IL-17A (cynomolgus, UniProt Q16552 24-155 (human entry), limits assumed)
- T1 construct: also called cyno IL-17A; cynoIL-17A
- T1 chain: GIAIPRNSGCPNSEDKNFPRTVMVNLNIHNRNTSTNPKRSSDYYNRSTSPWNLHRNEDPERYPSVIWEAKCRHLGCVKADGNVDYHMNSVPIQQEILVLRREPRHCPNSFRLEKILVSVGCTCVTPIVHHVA
- assay-overview: SPR Biacore 3000, antibody captured, IL-17 in solution
Give a bare numeral; the unit dimers per anti-IL-17 is implied.

Query: Determine from records and report Stoichiometry for mAb7146 (antibody, human IgG1, lambda, V domains shown, Framework-engineered mAb; also called engineered form of MOR8160) VH: QVQLLESGGGLVQPGGSLRLSCAASGFTFSSYAMSWVRQAPGKGLEWVSTISMTSGFTYYADSVKGRFTISRDNSKNTLYLQMNSLRAEDTAVYYCARQLTLDVWGQGTLVTVSS VL: QSVLTQPPSVSVAPGQTARISCSGDNLGDKYANWYQQKPGQAPVLVIYDDIDRPSGIPERFSGSNSGNTATLTISGTQAEDEADYYCGSYDFFLGLIVFGGGTKLTVLG
Result: 2

Query: Give Stoichiometry for the following binder: mAb5548 (antibody, human IgG1, lambda, V domains shown, Framework-engineered mAb) VH: QVQLLESGGGLVQPGGSLRLSCAASGFTFSSYAMSWVRQAPGKGLEWVSTISLTSGFTYYADSVKGRFTISRDNSKNTLYLQMNSLRAEDTAVYYCARQLTLDVWGQGTLVTVSS VL: QSVLTQPPSVSVAPGQTARISCSGDNLGDKYANWYQQKPGQAPVLVIYDDIDRPSGIPERFSGSNSGNTATLTISGTQAEDEADYYCGSYDFFLGLIVFGGGTKLTVLG
Result: 1.9

Query: Note Stoichiometry for the binder shown: mAb6785 (antibody, human IgG1, lambda, V domains shown, Framework-engineered mAb; also called engineered form of MOR8302) VH: QVQLLESGGGLVQPGGSLRLSCAASGFTFSSYAMSWVRQAPGKGLEWVSTISLTSGFTYYADSVKGRFTISRDNSKNTLYLQMNSLRAEDTAVYYCARQLTLDVWGQGTLVTVSS VL: QSVLTQPPSVSVAPGQTARISCSGDNLGDKYANWYQQKPGQAPVLVIYDDIDRPSGIPERFSGSNSGNTATLTISGTQAEDEADYYCGSYDFFLGMIVFGGGTKLTVLG
Result: 2.2

Query: State its Stoichiometry for this binder: mAb1926 (antibody, human IgG1, lambda, V domains shown, Framework-engineered mAb; also called mAbtr1926; engineered form of MOR7700) VH: QVQLLESGGGLVQPGGSLRLSCAASGFTFSSYAMSWVRQAPGKGLEWVSTISMTSGFTYYADSVKGRFTISRDNSKNTLYLQMNSLRAEDTAVYYCARQLMLDVWGQGTLVTVSS VL: QSVLTQPPSVSVAPGQTARISCSGDNLGDKYANWYQQKPGQAPVLVIYDDIDRPSGIPERFSGSNSGNTATLTISGTQAEDEADYYCGSYDFFLGMIVFGGGTKLTVLG
Result: 2.3
